Values compiled from patent US9670162B2.

Target: human ALDH2*2 recombinant mutant enzyme (E487K) (Homo sapiens, UniProt P05091, E504K)
Construct: His-tag (pTrcHis vector) (N); made in house; host or cells: E. coli BL21
Sequence (P05091 18-517 E504K): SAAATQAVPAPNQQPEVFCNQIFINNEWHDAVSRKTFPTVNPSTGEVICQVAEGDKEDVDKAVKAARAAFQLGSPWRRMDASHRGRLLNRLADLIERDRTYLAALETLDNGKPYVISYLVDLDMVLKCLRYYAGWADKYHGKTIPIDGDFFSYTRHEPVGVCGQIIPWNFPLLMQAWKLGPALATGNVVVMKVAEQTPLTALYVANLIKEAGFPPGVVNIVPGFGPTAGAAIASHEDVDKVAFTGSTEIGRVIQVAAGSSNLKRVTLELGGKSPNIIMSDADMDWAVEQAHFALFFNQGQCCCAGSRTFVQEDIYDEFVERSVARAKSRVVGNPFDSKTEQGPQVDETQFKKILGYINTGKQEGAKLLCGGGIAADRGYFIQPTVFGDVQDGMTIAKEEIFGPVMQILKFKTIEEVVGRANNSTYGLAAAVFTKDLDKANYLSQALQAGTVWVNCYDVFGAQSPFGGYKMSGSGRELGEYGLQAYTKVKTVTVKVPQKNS
Assay: ALDH2 enzymatic assay (NADH at 340 nm), recombinant mutant enzyme
Type: biochemical
Set-up: key: −: no activation or inhibition; +: activation less than control 1; ++: activation similar to control 1, within 10%; +++: activation more than control 1 and less than control (compound 161); ++++: activation similar to compound 161, within 10%
Conditions: activation relative to benchmarks control 1 and compound 161
METRIC_NAME: ALDH2 (mutant)

chemical_structure=O=C(NCc1ccc(O)c(F)c1)c1c(Cl)ccnc1OCC1CC1 reported_result=−
chemical_structure=CC(C)Oc1ccc(CNC(=O)c2c(Cl)ccnc2NCC2CC2)cc1F reported_result=+
chemical_structure=CCC(CC)Oc1nccc(Cl)c1C(=O)NCc1ccc(OC)c(F)c1 reported_result=++
chemical_structure=COc1ccc(CNC(=O)c2c(Cl)cccc2Br)cc1Cl reported_result=+
chemical_structure=CS(=O)(=O)c1ccc(CNC(=O)c2c(Cl)cccc2Cl)cc1 reported_result=+
chemical_structure=COc1ccc(CNC(=O)c2c(C)ccnc2OCC2CC2)cc1F reported_result=++
chemical_structure=O=C(NCc1ccc2ocnc2c1)c1c(Cl)ccnc1OCC1CC1 reported_result=−
chemical_structure=CS(=O)(=O)c1ccc(CNC(=O)c2c(Cl)ccnc2OCC2CC2)cc1F reported_result=+
chemical_structure=COc1ccc(CNC(=O)c2c(Cl)ccnc2S(=O)(=O)CC(C)C)cc1F reported_result=+
chemical_structure=COc1ccc(CNC(=O)c2c(Cl)ccnc2OCC2CC2)cc1F reported_result=++++

State recorded ALDH2 (mutant) for all listed molecules.
1. COc1ccc(CNC(=O)c2c(Cl)cncc2OCC2CC2)cc1F
2. COc1ccc(CNC(=O)c2c(Cl)ccnc2OCC(C)C)cc1F
3. COc1ccc(CNS(=O)(=O)c2c(Cl)cccc2Cl)cc1F
4. COc1ccc(CNC(=O)c2c(Cl)ccnc2OCC2(C)CC2)cc1F
5. COc1ccc(CNC(=O)c2c(C(F)(F)F)ccnc2OCC(C)C)cc1F

A.
["+++", "++", "+", "++++", "+"]
